Listed next: entries and their corresponding ECLU confirmatory assay.
# TARGET ENTITY: affinity purified antibody IHuP#002-001-ABL-08
# TEST PROTOCOL: ECL bridging/competition assay, 10 ug/ml ISV, 400 ng/ml antibody, labelled SEQ ID NO:1
Write down the numeric answer in ECLU and omit the unit.

Task: Query (binder): Example 1C: (K83R) (VHH) VHH: EVQLVESGGGLVQAGGSLRLSCAASGRTFNNYAMGWFRRAPGKEREFVAAITRSGVRSGVSAIYGDSVKDRFTISRDNAKNTLYLQMNSLRPEDTAVYTCAASAIGSGALRRFEYDYSGQGTQVTVSS ; field requested: ECLU confirmatory assay
Output: 2460

Further cases:
Task: Query (binder): Example 1c: (A14P, R39Q, K83R,T91Y, Q108L) (VHH) VHH: EVQLVESGGGLVQPGGSLRLSCAASGRTFNNYAMGWFRQAPGKEREFVAAITRSGVRSGVSAIYGDSVKDRFTISRDNAKNTLYLQMNSLRPEDTAVYYCAASAIGSGALRRFEYDYSGQGTLVTVSS ; field requested: ECLU confirmatory assay
Output: 251

Task: What about Example 1C: (A14P) (VHH) VHH: EVQLVESGGGLVQPGGSLRLSCAASGRTFNNYAMGWFRRAPGKEREFVAAITRSGVRSGVSAIYGDSVKDRFTISRDNAKNTLYLQMNSLKPEDTAVYTCAASAIGSGALRRFEYDYSGQGTQVTVSS ?
Output: 268

Task: What about Example 1C: (Q108L) (VHH) VHH: EVQLVESGGGLVQAGGSLRLSCAASGRTFNNYAMGWFRRAPGKEREFVAAITRSGVRSGVSAIYGDSVKDRFTISRDNAKNTLYLQMNSLKPEDTAVYTCAASAIGSGALRRFEYDYSGQGTLVTVSS ?
Output: 2530
